Compiled literature IC50, tested on Poly [ADP-ribose] polymerase 1 (Homo sapiens).
quantity_name: IC50 (µM)

[
  {
    "compound": "O=C(c1cc(Cc2n[nH]c(=O)c3ccccc23)ccc1F)N1CC2=C(CNC2)C1",
    "quantity_name": "IC50",
    "value_measured": 0.0243
  },
  {
    "compound": "O=C(CCCc1nc2ccccc2c(=O)[nH]1)N1CCC(n2c(=O)oc3cc(F)ccc32)CC1",
    "quantity_name": "IC50",
    "value_measured": 2.57
  },
  {
    "compound": "O=C(CCCc1nc2ccccc2c(=O)[nH]1)N[C@H]1CC[C@H](Oc2ccccn2)CC1",
    "quantity_name": "IC50",
    "value_measured": 5.82
  },
  {
    "compound": "Nc1cc(C(F)(F)F)c(-c2nc3c(c(N4CCOCC4)n2)CCN(C(=O)c2cc(Cc4n[nH]c(=O)c5ccccc45)ccc2F)C3)cn1",
    "quantity_name": "IC50",
    "value_measured": 0.0049
  }
]

[a] Cc1cccc2c(=O)[nH]c3c(c12)COC(C(C)(C)O)C3 (racemic)
[b] Cn1ccc2c(=O)[nH]c(N3CCN(c4ccccn4)CC3)nc21
Param pair: a , b . Output: the one whose IC50 is numerically greater. Indicate your choice by writing its label. b
(b: 0.437 µM, a: 0.0441 µM)

====

From various publications: pIC50 for Poly [ADP-ribose] polymerase 1 (Homo sapiens).
pIC50: −log10 of the molar value.
quantity_name: pIC50

[
  {
    "compound": "CS(=O)(=O)N1CCC(C2Cc3[nH]c(=O)c4ccccc4c3CO2)C1 (centres unmarked)",
    "pIC50": 7.44
  },
  {
    "compound": "Cn1ccc2c(=O)[nH]c(-c3cccnc3)nc21",
    "pIC50": 6.51
  },
  {
    "compound": "Cc1cccc2c(=O)[nH]c3c(c12)COC(C(C)(C)C)C3 (racemic)",
    "pIC50": 7.33
  },
  {
    "compound": "COCCN1CCC(C2Nc3cc(F)cc4c(=O)[nH]nc(c34)C2c2ccc(F)cc2F)C1 (centres unmarked)",
    "pIC50": 6.79
  }
]

[I] Cn1c(=O)n(C2CCN(C(=O)CCCc3nc4ccccc4c(=O)[nH]3)CC2)c2ccccc21
[II] O=C(CCCc1nc2ccccc2c(=O)[nH]1)N[C@H]1CC[C@H](Oc2cccc(Cl)c2)CC1
[III] O=C(CCCc1nc2ccccc2c(=O)[nH]1)N1CCC(c2nnc(-c3ccccn3)o2)CC1
Arrange items by their pIC50 values in increasing order. Please list each label once, in the requested order. III, I, II
(III: 5.20, I: 5.49, II: 5.86)

====

Several reports have described IC50 for Poly [ADP-ribose] polymerase 1 (Homo sapiens); a selection of those results is presented here.
quantity_name: IC50 (nM)

As a guide, the following entries are already answered.
[
  {
    "substance_smiles": "CCCN1CCN(c2cccc3c2Cc2c-3[nH]c(=O)c3c2CCCC3)CC1",
    "IC50 / nM": 6.3
  },
  {
    "substance_smiles": "Cc1nc2ccc(CN3CCN(c4ccc(C(=O)NC5CC5)nc4)CC3)c(F)c2[nH]c1=O",
    "IC50 / nM": 15
  },
  {
    "substance_smiles": "O=C(CCSc1nc2ccccc2c(=O)[nH]1)N1CCC(n2c(=O)[nH]c3cc(Cl)ccc32)CC1",
    "IC50 / nM": 1470
  },
  {
    "substance_smiles": "O=C(CCCc1nc2ccccc2c(=O)[nH]1)N[C@H]1CC[C@H](Oc2ccncc2)CC1",
    "IC50 / nM": 723
  }
]

[I] Cc1ccc(-c2nc3c(ccn3C)c(=O)[nH]2)cn1
[II] O=C(CCCc1nc2ccccc2c(=O)[nH]1)N1CCC(c2nnc(-c3ccncc3)o2)CC1
[III] Cn1ccc2c(=O)[nH]c(N3CCN(c4ccc(F)cc4F)CC3)nc21
# desc sort on IC50 across 3 compounds Returns: the labels listed in the requested order. II, III, I
(II: 4920 nM, III: 1220 nM, I: 166 nM)
